Biological target: Rlig1-AMP (Homo sapiens)
Construct: made in house; host or cells: E. coli BL21 (DE3), pET15b-Rlig1
Sequence (Q8N999 whole entry): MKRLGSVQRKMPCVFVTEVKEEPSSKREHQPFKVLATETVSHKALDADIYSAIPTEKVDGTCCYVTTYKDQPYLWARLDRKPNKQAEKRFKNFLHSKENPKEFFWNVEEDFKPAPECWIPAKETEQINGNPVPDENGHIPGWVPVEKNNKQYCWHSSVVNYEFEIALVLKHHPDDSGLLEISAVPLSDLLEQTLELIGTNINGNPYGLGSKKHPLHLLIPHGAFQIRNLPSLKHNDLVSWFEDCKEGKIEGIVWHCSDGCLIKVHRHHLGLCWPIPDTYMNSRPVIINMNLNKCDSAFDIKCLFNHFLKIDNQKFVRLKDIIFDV
Assay: FRET-based high-throughput screening of inhibitors for Rlig1-AMP
Assay type: biochemical
Settings: sheet HTS hits; without enzyme
Think of 5000 as a floor: if Raw data [w/o Enzym] stands on it or above, it is label 1; beneath it, label 0.

Hi, just wondering whether COc1cc(/C=C/C(=O)NCC(O)c2ccc(O)cc2)ccc1O (stereo not drawn) shows Raw data [w/o Enzym] of 5000 or higher.
label 1

Hi team, for COC(=O)c1cc(OC)c2c(c1-c1c(C(=O)OC)cc(OC)c3c1OCO3)OCO2 [Bifendate] , is the recorded Raw data [w/o Enzym] at or above 5000?
label 1

Given the entry CC(C)(C)OC(=O)CCOCCBr , answer whether its Raw data [w/o Enzym] meets or surpasses 5000.
label 1

Evaluate COc1cc(/C=C(\C#N)C(=O)c2ccc(O)c(O)c2)cc(I)c1O : Raw data [w/o Enzym] at minimum 5000?
label 0

In plain terms: is recorded Raw data [w/o Enzym] at least 5000 for COc1cccc2c1C(=N)c1c(O)c3c(c(O)c1C2=O)C[C@@](O)(C(C)=O)C[C@@H]3O[C@H]1C[C@H](N)[C@H](O)[C@H](C)O1.Cl [5-Iminodaunorubicin (hydrochloride)] ?
label 0

Can CN(C)C/C=C/C(=O)Nc1ccc(C(=O)Nc2cccc(Nc3cc(-c4c[nH]c5ccccc45)ncn3)c2)cc1 [THZ-P1-2] be said to have Raw data [w/o Enzym] at or above 5000?
label 0

Sourced from paper PMC11747885
